Biological target: Substance-P receptor (Homo sapiens, UniProt P25103)
Sequence (P25103 whole entry): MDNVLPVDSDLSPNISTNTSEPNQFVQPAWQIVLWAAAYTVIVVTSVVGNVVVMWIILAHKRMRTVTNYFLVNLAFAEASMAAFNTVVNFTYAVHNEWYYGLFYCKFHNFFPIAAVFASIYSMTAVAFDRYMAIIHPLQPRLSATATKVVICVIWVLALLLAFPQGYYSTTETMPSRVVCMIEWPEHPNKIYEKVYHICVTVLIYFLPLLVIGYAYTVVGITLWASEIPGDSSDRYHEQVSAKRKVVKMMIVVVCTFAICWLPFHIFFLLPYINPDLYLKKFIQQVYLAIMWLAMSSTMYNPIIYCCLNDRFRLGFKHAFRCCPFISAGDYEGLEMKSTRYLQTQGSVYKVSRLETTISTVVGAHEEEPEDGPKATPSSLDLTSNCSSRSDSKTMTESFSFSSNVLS
Assay: Binding affinity towards Neurokinin -1(NK-1) receptor of human by using [125I]- Tyr8 substance P as a radioligand in CHO cells
Reported metric: IC50 (nM)

OC(COCc1cc(C(F)(F)F)cc(C(F)(F)F)c1)C(c1ccccc1)c1ccccc1 (stereo not drawn): 17
O=C(C[C@H]1CCC[C@H](OCc2cc(C(F)(F)F)cc(C(F)(F)F)c2)[C@@H]1c1ccccc1)NCc1cccnc1: 3.7
NC(=O)C[C@H]1CCC[C@H](OCc2cc(C(F)(F)F)cc(C(F)(F)F)c2)[C@@H]1c1ccccc1 (stereo in doubt; 22): 1.5

====

Target: Substance-P receptor (Homo sapiens)
Experiment: Binding affinity towards Neurokinin -1(NK-1) receptor of human by using [125I]- Tyr8 substance P as a radioligand in CHO cells
pIC50: −log10 of the molar value.
Reported metric: pIC50

CN1CCC[C@H](OCc2cc(C(F)(F)F)cc(C(F)(F)F)c2)[C@@H]1c1ccccc1: 7.85
O=C(NCc1cccnc1)NC[C@H]1CCC[C@H](OCc2cc(C(F)(F)F)cc(C(F)(F)F)c2)[C@@H]1c1ccccc1: 7.47
O=C(C[C@H]1CCC[C@H](OCc2cc(C(F)(F)F)cc(C(F)(F)F)c2)[C@@H]1c1ccccc1)NCc1ccncc1: 8.15
NC(=O)NC[C@H]1CCC[C@H](OCc2cc(C(F)(F)F)cc(C(F)(F)F)c2)[C@@H]1c1ccccc1: 8.17
FC(F)(F)c1cc(CO[C@H]2CCCC[C@H]2c2ccccc2)cc(C(F)(F)F)c1: 5.58
FC(F)(F)c1cc(CO[C@H]2CCCO[C@H]2c2ccccc2)cc(C(F)(F)F)c1: 6.06
NC(=O)C[C@H]1CCC[C@H](OCc2cc(C(F)(F)F)cc(C(F)(F)F)c2)[C@@H]1c1ccccc1 (stereo in doubt; 19a): 8.52
